# settings: buffer; pH 7.4; 200.0 µM
test.readout: solubility kinetic (µg/mL)

smiles_data=CC(=O)Nc1ccc(C(=S)NCC2(N(C)C)CCCCC2)cc1 inequality_symbol== numeric_readout=21.1
smiles_data=COc1ccc(CCNC(=O)Cc2ccc(Cl)cc2)cc1OC inequality_symbol=> numeric_readout=50.1
smiles_data=COc1ccc(/C=C/C(=O)N(C)C2CCCCC2)cc1Br inequality_symbol== numeric_readout=18
smiles_data=Cc1cccc(CC(=O)NCCN2CCCCC2)c1 inequality_symbol== numeric_readout=32.5
smiles_data=N#Cc1c(C(F)(F)F)cc(-c2cccs2)nc1N1CCCCC1 inequality_symbol=< numeric_readout=0.2
smiles_data=COc1ccccc1NC(=O)Cn1cc(C(=O)c2ccco2)c2ccccc21 inequality_symbol== numeric_readout=1.2

###

# settings: buffer; pH 7.4; 200.0 µM
solubility kinetic listing for selected compounds.
test.readout: solubility kinetic (µg/mL)

compound="CS(=O)(=O)N1CCCC(C(=O)Nc2ccccc2C(F)(F)F)C1 (stereo unspecified)" unit=µg/mL inequality_symbol=> numeric_readout=52.6
compound=COc1cccc(COC(=O)Nc2ccccc2F)c1 unit=µg/mL inequality_symbol== numeric_readout=18.9
compound=CC(=O)Nc1nc2c(C)c(Cl)ccc2s1 unit=µg/mL inequality_symbol=< numeric_readout=0.3
compound=COC(=O)c1ccc(NC(=S)Nc2ccc(O)cc2)cc1 unit=µg/mL inequality_symbol== numeric_readout=22.3
compound=Cc1ccc(-n2c(CNCc3ccc(F)cc3)nc3ccccc3c2=O)cc1 unit=µg/mL inequality_symbol== numeric_readout=35.1
compound=CCOC(=O)/C(C#N)=C/Nc1ccsc1C(=O)OC unit=µg/mL inequality_symbol=< numeric_readout=0.3

###

# settings: buffer; pH 7.4; 200.0 µM
log10 of solubility kinetic listing for selected compounds.
test.readout: log10 of solubility kinetic (log10 of the value in µg/mL)

compound=N#Cc1ccc(NC(=O)CN2C(=O)NC3(CCCC3)C2=O)cc1Cl test_readout="log10 of solubility kinetic" numeric_readout=1.66
compound="CC1CCC2(CC1)NC(=O)N(CC(=O)Nc1cc(S(=O)(=O)N3CCCC3)ccc1Cl)C2=O (stereo not given)" test_readout="log10 of solubility kinetic" numeric_readout=0.15
compound="Cc1cnc(NC(=O)CC2OC(=O)c3ccccc32)s1 (stereo not given)" test_readout="log10 of solubility kinetic" numeric_readout=0.81
compound=Cc1ccc2oc(C(=O)N3CCCCCC3)c(C)c2c1 test_readout="log10 of solubility kinetic" numeric_readout=1.22
compound=CCN(CC)C(=S)Nc1ccc(OC(F)F)cc1 test_readout="log10 of solubility kinetic" numeric_readout=1.61
compound="Cc1c(Cl)c(=O)oc2cc(OCC(=O)N3CCCC(C)C3)ccc12 (stereo not given)" test_readout="log10 of solubility kinetic" numeric_readout=1.58
compound=COc1ccc(C(=O)O/N=C(/c2cccs2)C(C)(C)C)cc1 test_readout="log10 of solubility kinetic" numeric_readout=0.38
compound=Cc1ccccc1CSCC(=O)Nc1ccccc1F test_readout="log10 of solubility kinetic" numeric_readout=1.45
compound=CC(C)Oc1ccc(C(=O)Nc2cccc(S(=O)(=O)N3CCCC3)c2)cc1 test_readout="log10 of solubility kinetic" numeric_readout=0.93
compound=CCOC(=O)c1ccc(NC(=S)NCc2ccc(F)cc2)cc1 test_readout="log10 of solubility kinetic" numeric_readout=0.34
compound=O=C(CN1C(=O)c2ccccc2S1(=O)=O)c1ccccc1F test_readout="log10 of solubility kinetic" numeric_readout=1.25
compound=O=S(=O)(c1ccc(Cl)nc1)N1CCN(c2ncccn2)CC1 test_readout="log10 of solubility kinetic" numeric_readout=0.00
compound=CC[C@@H](Nc1ncnc2c1oc1ccccc12)C(=O)O test_readout="log10 of solubility kinetic" numeric_readout=1.48
compound="O=C(COc1cccc(C(F)(F)F)c1)NCC(c1ccco1)N1CCCC1 (stereo not given)" test_readout="log10 of solubility kinetic" numeric_readout=1.65
compound=O=C(CSc1ncnc2sccc12)Nc1ccccc1 test_readout="log10 of solubility kinetic" numeric_readout=0.84
compound=CCCN1CCC(NC(=O)Nc2cc(Cl)ccc2OC)CC1 test_readout="log10 of solubility kinetic" numeric_readout=1.68
compound=Cc1ccc(NC(=O)c2cc(C)nc3ccccc23)cc1 test_readout="log10 of solubility kinetic" numeric_readout=0.32
compound=c1cncc(Nc2c3ccccc3nc3ccccc23)c1 test_readout="log10 of solubility kinetic" numeric_readout=0.30
compound=NC(=S)Cc1ccccc1Cl test_readout="log10 of solubility kinetic" numeric_readout=1.40
compound=COc1cc(OC)cc(C(=O)N[C@H](C(=O)NCc2ccco2)C(C)C)c1 test_readout="log10 of solubility kinetic" numeric_readout=1.66
compound=COc1ccccc1NC(=O)C(=O)N1CCCC1 test_readout="log10 of solubility kinetic" numeric_readout=1.55
compound=Cc1ccc(F)c(NC(=O)c2cncn2-c2ccccc2)c1 test_readout="log10 of solubility kinetic" numeric_readout=1.61
compound=N#Cc1cnc(Nc2ccc(F)cc2)nc1N test_readout="log10 of solubility kinetic" numeric_readout=0.67
compound=COc1cccc(CNC(=O)Cc2ccc(-c3ccccc3)cc2)c1 test_readout="log10 of solubility kinetic" numeric_readout=0.71
compound="Cc1ccccc1CNC(=O)C1CCC(=O)N(C2CC2)C1 (stereo not given)" test_readout="log10 of solubility kinetic" numeric_readout=1.57
compound=CC(C)(C)NC(=O)NCCc1ccccc1 test_readout="log10 of solubility kinetic" numeric_readout=1.48
compound=O=C(Nc1cccc(O)c1)c1cc(-c2cccs2)on1 test_readout="log10 of solubility kinetic" numeric_readout=0.11
compound="CC(=O)Nc1ccc(S(=O)(=O)NC2CCS(=O)(=O)C2)cc1Cl (stereo not given)" test_readout="log10 of solubility kinetic" numeric_readout=1.38
compound=CC12CC3(C)CC(C)(C1)CC(C(=O)NCc1ccccn1)(C2)C3 test_readout="log10 of solubility kinetic" numeric_readout=1.63
compound=COc1ccccc1CNc1ccc(N2CCCCC2)cc1 test_readout="log10 of solubility kinetic" numeric_readout=1.48
